Values compiled from ChEMBL document CHEMBL1154060.

Molecular target: Acetylcholinesterase (Homo sapiens, UniProt P22303)
Sequence (P22303 whole entry): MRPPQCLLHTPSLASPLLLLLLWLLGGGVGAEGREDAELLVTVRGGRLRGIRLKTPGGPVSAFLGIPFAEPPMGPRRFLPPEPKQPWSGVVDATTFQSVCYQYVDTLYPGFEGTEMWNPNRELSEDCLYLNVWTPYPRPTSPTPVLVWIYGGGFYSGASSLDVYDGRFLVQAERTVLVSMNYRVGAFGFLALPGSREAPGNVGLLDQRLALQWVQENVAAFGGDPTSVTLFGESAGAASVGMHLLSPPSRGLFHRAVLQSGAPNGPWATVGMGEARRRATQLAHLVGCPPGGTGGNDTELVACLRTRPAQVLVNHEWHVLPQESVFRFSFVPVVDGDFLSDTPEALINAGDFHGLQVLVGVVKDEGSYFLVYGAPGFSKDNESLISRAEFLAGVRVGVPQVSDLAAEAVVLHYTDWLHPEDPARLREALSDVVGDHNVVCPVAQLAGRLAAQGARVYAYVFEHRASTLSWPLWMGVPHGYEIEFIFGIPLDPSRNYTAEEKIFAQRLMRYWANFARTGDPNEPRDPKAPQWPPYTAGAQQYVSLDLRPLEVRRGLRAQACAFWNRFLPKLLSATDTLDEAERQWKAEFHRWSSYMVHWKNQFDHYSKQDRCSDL
Assay: Inhibition of human recombinant AChE […] by Ellman's assay
Recorded IC50 values for a group of compounds are listed next.
Answer format: numeric, µM implied, no suffix.

// known answers, use as guide
- compound: "CSc1n[nH]c2nc3c(c(N)c12)C1CC(C)=CC(C3)C1 (racemic)"
  quantity-name: "IC50"
  recorded-result: 50
- compound: "CC1=CC2Cc3nc4oc(C5CC5)nc4c(N)c3C(C1)C2 (racemic)"
  quantity-name: "IC50"
  recorded-result: 50
- compound: "CCC1=CC2Cc3nc4cc(OC)c(OC)cc4c(N)c3C(C1)C2 (racemic)"
  quantity-name: "IC50"
  recorded-result: 5.1

// next item, IC50 requested
// IC50 value for COc1cc2c(cc1OC)C(c1cccc([N+](=O)[O-])c1)N(CCCCCCc1cn(CCNc3c4c(nc5cc(Cl)ccc35)CC3C=C(C)CC4C3)nn1)CC2 (racemic) : 0.00395
